Biological target: DNA topoisomerase I (Bos taurus, UniProt F1MN93)
Construct: purchased TaKaRa, Kyoto, Japan
Sequence (F1MN93 1-767): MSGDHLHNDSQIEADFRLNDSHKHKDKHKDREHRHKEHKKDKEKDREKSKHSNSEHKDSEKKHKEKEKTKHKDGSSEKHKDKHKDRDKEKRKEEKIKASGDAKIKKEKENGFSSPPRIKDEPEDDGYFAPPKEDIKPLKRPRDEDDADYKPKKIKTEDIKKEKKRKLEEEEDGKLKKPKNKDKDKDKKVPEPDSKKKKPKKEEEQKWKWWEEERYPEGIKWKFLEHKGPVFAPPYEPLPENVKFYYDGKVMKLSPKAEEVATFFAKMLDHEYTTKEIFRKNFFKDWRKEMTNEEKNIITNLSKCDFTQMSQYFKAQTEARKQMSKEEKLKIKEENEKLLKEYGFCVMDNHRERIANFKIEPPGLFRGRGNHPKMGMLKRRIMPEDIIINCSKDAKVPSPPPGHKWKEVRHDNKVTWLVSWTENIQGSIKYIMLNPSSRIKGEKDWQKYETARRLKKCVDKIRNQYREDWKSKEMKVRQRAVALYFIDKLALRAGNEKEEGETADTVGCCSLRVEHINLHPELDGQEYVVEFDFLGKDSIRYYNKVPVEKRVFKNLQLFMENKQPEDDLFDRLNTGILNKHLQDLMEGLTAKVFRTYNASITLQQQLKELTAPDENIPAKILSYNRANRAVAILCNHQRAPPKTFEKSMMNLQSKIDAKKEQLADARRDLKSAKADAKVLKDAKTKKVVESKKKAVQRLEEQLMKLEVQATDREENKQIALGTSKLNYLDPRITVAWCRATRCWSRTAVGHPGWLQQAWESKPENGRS
Assay: Topoisomerase I relaxation assay (supercoiled pBR322)
Type: biochemical
Conditions: 100 μM compound; read-out: Topo I Inhibition (%) 100 μM
endpoint: inhibition at 100 µM

Any idea what inhibition at 100 µM was measured for Cc1ccc2[nH]c3c(c2c1)C[C@@]1(C)C(CC[C@]2(C)C1CC=C1C4[C@@H](C)[C@H](C)CC[C@]4(C(=O)NCCCCN4CCOCC4)CC[C@]12C)C3(C)C (some centres unmarked) ? 0%

Any idea what inhibition at 100 µM was measured for Cc1ccc2[nH]c3c(c2c1)C[C@@]1(C)C(CC[C@]2(C)C1CC=C1C4[C@@H](C)[C@H](C)CC[C@]4(C(=O)NCCCN)CC[C@]12C)C3(C)C (some centres unmarked) ? 24.5%

Any idea what inhibition at 100 µM was measured for Cc1ccc2[nH]c3c(c2c1)C[C@@]1(C)C(CC[C@]2(C)C1CC=C1C4[C@@H](C)[C@H](C)CC[C@]4(C(=O)NCCCCN)CC[C@]12C)C3(C)C (some centres unmarked) ? 28.8%

Any idea what inhibition at 100 µM was measured for Cc1ccc2[nH]c3c(c2c1)C[C@@]1(C)C(CC[C@]2(C)C1CC=C1C4[C@@H](C)[C@H](C)CC[C@]4(C(=O)NCCCN4CCOCC4)CC[C@]12C)C3(C)C (some centres unmarked) ? 0%

Any idea what inhibition at 100 µM was measured for Cc1ccc2[nH]c3c(c2c1)C[C@@]1(C)C(CC[C@]2(C)C1CC=C1C4[C@@H](C)[C@H](C)CC[C@]4(C(=O)NCCN4CCOCC4)CC[C@]12C)C3(C)C (some centres unmarked) ? 0%

Any idea what inhibition at 100 µM was measured for CCN(CC)CCNC(=O)[C@]12CC[C@@H](C)[C@H](C)C1C1=CCC3[C@@]4(C)Cc5c([nH]c6ccc(C)cc56)C(C)(C)C4CC[C@@]3(C)[C@]1(C)CC2 (some centres unmarked) ? 0%

Any idea what inhibition at 100 µM was measured for Cc1ccc2[nH]c3c(c2c1)C[C@@]1(C)C(CC[C@]2(C)C1CC=C1C4[C@@H](C)[C@H](C)CC[C@]4(C(=O)NCCCN(C)C)CC[C@]12C)C3(C)C (some centres unmarked) ? 34.2%

Any idea what inhibition at 100 µM was measured for Cc1ccc2[nH]c3c(c2c1)C[C@@]1(C)C(CC[C@]2(C)C1CC=C1C4[C@@H](C)[C@H](C)CC[C@]4(C(=O)NCCCCN4CCCCC4)CC[C@]12C)C3(C)C (some centres unmarked) ? 0%

Any idea what inhibition at 100 µM was measured for Cc1ccc2[nH]c3c(c2c1)C[C@@]1(C)C(CC[C@]2(C)C1CC=C1C4[C@@H](C)[C@H](C)CC[C@]4(C(=O)NCCNC(=O)[C@]45CC[C@@H](C)[C@H](C)C4C4=CCC6[C@@]7(C)Cc8c([nH]c9ccc(C)cc89)C(C)(C)C7CC[C@@]6(C)[C@]4(C)CC5)CC[C@]12C)C3(C)C (some centres unmarked) ? 0%

Any idea what inhibition at 100 µM was measured for Cc1ccc2[nH]c3c(c2c1)C[C@@]1(C)C(CC[C@]2(C)C1CC=C1C4[C@@H](C)[C@H](C)CC[C@]4(C(=O)NCCN4CCCCC4)CC[C@]12C)C3(C)C (some centres unmarked) ? 13%

Any idea what inhibition at 100 µM was measured for Cc1ccc2[nH]c3c(c2c1)C[C@@]1(C)C(CC[C@]2(C)C1CC=C1C4[C@@H](C)[C@H](C)CC[C@]4(C(=O)NCCCCN4CCN(C)CC4)CC[C@]12C)C3(C)C (some centres unmarked) ? 0%

Any idea what inhibition at 100 µM was measured for Cc1ccc2[nH]c3c(c2c1)C[C@@]1(C)C(CC[C@]2(C)C1CC=C1C4[C@@H](C)[C@H](C)CC[C@]4(C(=O)NCCN)CC[C@]12C)C3(C)C (some centres unmarked) ? 15.1%

Any idea what inhibition at 100 µM was measured for Cc1ccc2[nH]c3c(c2c1)C[C@@]1(C)C(CC[C@]2(C)C1CC=C1C4[C@@H](C)[C@H](C)CC[C@]4(C(=O)NCCN4CCN(C)CC4)CC[C@]12C)C3(C)C (some centres unmarked) ? 0%

Any idea what inhibition at 100 µM was measured for CC[C@@]1(O)C(=O)OCc2c1cc1n(c2=O)Cc2cc3ccccc3nc2-1 [CPT, camptothecin, reference compound] ? 75.1%

Any idea what inhibition at 100 µM was measured for Cc1ccc2[nH]c3c(c2c1)C[C@@]1(C)C(CC[C@]2(C)C1CC=C1C4[C@@H](C)[C@H](C)CC[C@]4(C(=O)NCCCCNC(=O)[C@]45CC[C@@H](C)[C@H](C)C4C4=CCC6[C@@]7(C)Cc8c([nH]c9ccc(C)cc89)C(C)(C)C7CC[C@@]6(C)[C@]4(C)CC5)CC[C@]12C)C3(C)C (some centres unmarked) ? 0%

Any idea what inhibition at 100 µM was measured for Cc1ccc2[nH]c3c(c2c1)C[C@@]1(C)C(CC[C@]2(C)C1CC=C1C4[C@@H](C)[C@H](C)CC[C@]4(C(=O)NCCCN4CCN(C)CC4)CC[C@]12C)C3(C)C (some centres unmarked) ? 0%

Any idea what inhibition at 100 µM was measured for CCN(CC)CCCNC(=O)[C@]12CC[C@@H](C)[C@H](C)C1C1=CCC3[C@@]4(C)Cc5c([nH]c6ccc(C)cc56)C(C)(C)C4CC[C@@]3(C)[C@]1(C)CC2 (some centres unmarked) ? 0%

* * *

Biological target: Human Topoisomerase IIα (Homo sapiens, UniProt P11388)
Construct: purchased USB, Affymetrix, Waltham, MA, USA
Sequence (P11388 whole entry): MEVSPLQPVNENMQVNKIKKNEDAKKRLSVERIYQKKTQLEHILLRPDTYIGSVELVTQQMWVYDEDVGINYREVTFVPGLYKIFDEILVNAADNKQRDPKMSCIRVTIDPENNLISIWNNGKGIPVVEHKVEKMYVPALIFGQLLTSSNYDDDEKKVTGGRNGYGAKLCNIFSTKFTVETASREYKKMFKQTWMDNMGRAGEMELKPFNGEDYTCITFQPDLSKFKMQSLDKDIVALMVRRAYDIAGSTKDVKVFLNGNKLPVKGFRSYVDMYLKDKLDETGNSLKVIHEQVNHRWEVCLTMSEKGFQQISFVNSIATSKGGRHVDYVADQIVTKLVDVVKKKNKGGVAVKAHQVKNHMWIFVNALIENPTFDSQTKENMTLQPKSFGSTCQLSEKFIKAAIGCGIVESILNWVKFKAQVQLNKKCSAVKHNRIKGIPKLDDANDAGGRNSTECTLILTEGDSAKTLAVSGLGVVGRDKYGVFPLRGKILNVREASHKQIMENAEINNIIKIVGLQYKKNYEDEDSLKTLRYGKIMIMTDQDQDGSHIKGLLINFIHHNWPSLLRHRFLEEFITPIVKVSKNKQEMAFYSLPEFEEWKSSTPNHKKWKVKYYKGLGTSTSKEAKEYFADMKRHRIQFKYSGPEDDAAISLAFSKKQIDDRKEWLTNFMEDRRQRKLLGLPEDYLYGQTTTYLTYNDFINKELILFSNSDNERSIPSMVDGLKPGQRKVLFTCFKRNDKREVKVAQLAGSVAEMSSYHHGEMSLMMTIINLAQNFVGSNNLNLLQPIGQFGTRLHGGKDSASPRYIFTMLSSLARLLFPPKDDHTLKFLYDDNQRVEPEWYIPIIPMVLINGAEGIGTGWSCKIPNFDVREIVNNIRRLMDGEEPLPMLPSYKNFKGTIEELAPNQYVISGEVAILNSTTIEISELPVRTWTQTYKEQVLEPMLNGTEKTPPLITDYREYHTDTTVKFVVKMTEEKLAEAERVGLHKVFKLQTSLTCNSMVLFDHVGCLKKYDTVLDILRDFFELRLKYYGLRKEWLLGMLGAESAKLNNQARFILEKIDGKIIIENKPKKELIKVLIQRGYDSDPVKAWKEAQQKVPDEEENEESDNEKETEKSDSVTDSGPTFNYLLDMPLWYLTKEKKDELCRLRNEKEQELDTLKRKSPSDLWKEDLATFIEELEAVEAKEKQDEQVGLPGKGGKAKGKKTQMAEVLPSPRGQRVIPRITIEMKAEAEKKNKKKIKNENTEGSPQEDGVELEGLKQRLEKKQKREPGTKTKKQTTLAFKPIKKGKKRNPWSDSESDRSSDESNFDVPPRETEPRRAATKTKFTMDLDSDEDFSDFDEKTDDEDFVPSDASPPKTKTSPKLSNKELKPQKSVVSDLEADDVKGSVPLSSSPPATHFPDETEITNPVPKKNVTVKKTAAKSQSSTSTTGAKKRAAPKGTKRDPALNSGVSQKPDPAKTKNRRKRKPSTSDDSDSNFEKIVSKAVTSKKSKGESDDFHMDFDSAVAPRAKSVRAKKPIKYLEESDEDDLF
Experiment: Topoisomerase II relaxation assay (supercoiled pBR322)
Type: biochemical
Conditions: 100 μM compound; read-out: Topo II Inhibition (%) 100 μM
endpoint: inhibition at 100 µM (%)
Numeric only. Scale: %

Any idea what inhibition at 100 µM was measured for CCN(CC)CCNC(=O)[C@]12CC[C@@H](C)[C@H](C)C1C1=CCC3[C@@]4(C)Cc5c([nH]c6ccc(C)cc56)C(C)(C)C4CC[C@@]3(C)[C@]1(C)CC2 (stereo partly drawn) ? 68.7

Any idea what inhibition at 100 µM was measured for Cc1ccc2[nH]c3c(c2c1)C[C@@]1(C)C(CC[C@]2(C)C1CC=C1C4[C@@H](C)[C@H](C)CC[C@]4(C(=O)NCCCN4CCOCC4)CC[C@]12C)C3(C)C (stereo partly drawn) ? 70.8

Any idea what inhibition at 100 µM was measured for Cc1ccc2[nH]c3c(c2c1)C[C@@]1(C)C(CC[C@]2(C)C1CC=C1C4[C@@H](C)[C@H](C)CC[C@]4(C(=O)NCCN(C)C)CC[C@]12C)C3(C)C (stereo partly drawn) ? 68

Any idea what inhibition at 100 µM was measured for Cc1ccc2[nH]c3c(c2c1)C[C@@]1(C)C(CC[C@]2(C)C1CC=C1C4[C@@H](C)[C@H](C)CC[C@]4(C(=O)NCCN)CC[C@]12C)C3(C)C (stereo partly drawn) ? 69.7

Any idea what inhibition at 100 µM was measured for CCN(CC)CCCCNC(=O)[C@]12CC[C@@H](C)[C@H](C)C1C1=CCC3[C@@]4(C)Cc5c([nH]c6ccc(C)cc56)C(C)(C)C4CC[C@@]3(C)[C@]1(C)CC2 (stereo partly drawn) ? 70

Any idea what inhibition at 100 µM was measured for Cc1ccc2[nH]c3c(c2c1)C[C@@]1(C)C(CC[C@]2(C)C1CC=C1C4[C@@H](C)[C@H](C)CC[C@]4(C(=O)NCCCCN(C)C)CC[C@]12C)C3(C)C (stereo partly drawn) ? 69
